- Measurement Protocol: Ratio of drug uptake in brain to plasma of CF-1 mouse at 1 mg/kg, iv measured 4 hrs post-dosing
- Type: ADME, organism-based
- Set-up: dose 1 mg/kg, route intravenous
- Experimental Parameters: read-out: BPR
Recorded Metric: Kp at 4 h

Compound	Numeric Result
Clc1cc2nc([C@@H]3CCCN3c3cc(N4CCO[C@@H](c5ccccc5)C4)ncn3)[nH]c2cc1Cl	0.79

(a) Clc1cc2nc([C@@H]3CCCN3c3cc(N4CCCC(N5CCc6c(cccc6-c6cccnc6)C5)C4)ncn3)[nH]c2cc1Cl (stereo in doubt; 28a)
(b) C[C@H](Nc1cc(N2CCCC(C(C)(C)O)C2)ncn1)c1ccc(Cl)cc1 (stereo partly drawn)
Challenge: // max by Kp at 4 h over [ a , b ] Bench note: the answer is the label of the chosen record.
Response given: b
(b: 1.4, a: 0.29)

###

- Tested Target: Lysosomal Pro-X carboxypeptidase (Homo sapiens, UniProt P42785)
- Sequence (P42785 whole entry): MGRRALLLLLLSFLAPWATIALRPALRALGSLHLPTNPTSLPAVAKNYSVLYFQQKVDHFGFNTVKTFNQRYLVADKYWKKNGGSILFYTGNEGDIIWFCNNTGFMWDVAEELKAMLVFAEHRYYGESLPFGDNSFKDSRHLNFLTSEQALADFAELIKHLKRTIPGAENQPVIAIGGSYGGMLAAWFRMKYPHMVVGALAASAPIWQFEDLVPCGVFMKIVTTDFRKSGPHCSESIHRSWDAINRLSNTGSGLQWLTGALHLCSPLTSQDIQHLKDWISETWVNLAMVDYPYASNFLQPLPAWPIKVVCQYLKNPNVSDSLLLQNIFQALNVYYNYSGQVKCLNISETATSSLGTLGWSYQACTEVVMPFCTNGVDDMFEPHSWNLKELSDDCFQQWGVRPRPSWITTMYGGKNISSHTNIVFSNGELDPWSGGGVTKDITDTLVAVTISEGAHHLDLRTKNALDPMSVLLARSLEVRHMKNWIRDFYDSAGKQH
- Measurement Protocol: Inhibition of human recombinant PrCP using Mca-Ala-Pro-Lys(Dnp)-OH as substrate after 30 mins by fluorescence analysis
Recorded Metric: IC50

The compound listed as `Clc1cc2nc([C@@H]3CCCN3c3cc(NCC4CCCCC4)ncn3)[nH]c2cc1Cl` shows IC50 equal to > 10 µM

###

- Tested Target: Lysosomal Pro-X carboxypeptidase (Mus musculus)
- Measurement Protocol: Inhibition of mouse recombinant PrCP assessed as angiotensin 3 cleavage after 8 mins by LC/MS analysis
Recorded Metric: IC50 (µM)

(a) COc1ccc(C2CN(c3cc(N4CCC[C@H]4c4nc5cc(Cl)c(Cl)cc5[nH]4)ncn3)CCO2)cc1 (some centres undefined)
(b) C[C@@H](c1ccc(Cl)cc1)N(C)c1cc(N2CCCC(C(C)(C)O)C2)ncn1 (mixture of isomers)
Challenge: // max by IC50 over [ a , b ] Bench note: the answer is the label of the chosen record.
Response given: a
(a: 9 µM, b: 5 µM)

###

- Measurement Protocol: Plasma concentration in CF-1 mouse at 1 mg/kg, iv measured after 4 hrs post dosing
- Format: ADME, organism-based
- Parameters: dose 1 mg/kg, route intravenous
Recorded Metric: concentration at 4 h (µM)

Molecule	Recorded Metric	Numeric Result
Clc1cc2nc([C@@H]3CCCN3c3cc(N4CCO[C@@H](c5ccccc5)C4)ncn3)[nH]c2cc1Cl	concentration at 4 h	0.304
Clc1cc2nc([C@@H]3CCCN3c3cc(N4CCCC(N5CCc6c(cccc6-c6cccnc6)C5)C4)ncn3)[nH]c2cc1Cl (stereo in doubt; 28a)	concentration at 4 h	0.367
C[C@H](Nc1cc(N2CCCC(C(C)(C)O)C2)ncn1)c1ccc(Cl)cc1 (stereo partly drawn)	concentration at 4 h	0.291

###

- Measurement Protocol: Drug uptake in CF-1 mouse brain at 1 mg/kg, iv measured after 4 hrs post dosing
- Assay type: ADME, organism-based
- Set-up: dose 1 mg/kg, route intravenous
- Experimental Parameters: read-out: Drug uptake
Recorded Metric: concentration at 4 h (nM)

(1) Clc1cc2nc([C@@H]3CCCN3c3cc(N4CCCC(N5CCc6c(cccc6-c6cccnc6)C5)C4)ncn3)[nH]c2cc1Cl (stereo in doubt; 28a)
(2) Clc1cc2nc([C@@H]3CCCN3c3cc(N4CCO[C@@H](c5ccccc5)C4)ncn3)[nH]c2cc1Cl
(3) C[C@H](Nc1cc(N2CCCC(C(C)(C)O)C2)ncn1)c1ccc(Cl)cc1 (stereo partly drawn)
Challenge: Place the items in sequence of falling concentration at 4 h. Form field (ranking): labels in requested order.
Response given: 3, 2, 1

###

- Tested Target: Lysosomal Pro-X carboxypeptidase (Mus musculus, UniProt Q7TMR0)
- Sequence (Q7TMR0 whole entry): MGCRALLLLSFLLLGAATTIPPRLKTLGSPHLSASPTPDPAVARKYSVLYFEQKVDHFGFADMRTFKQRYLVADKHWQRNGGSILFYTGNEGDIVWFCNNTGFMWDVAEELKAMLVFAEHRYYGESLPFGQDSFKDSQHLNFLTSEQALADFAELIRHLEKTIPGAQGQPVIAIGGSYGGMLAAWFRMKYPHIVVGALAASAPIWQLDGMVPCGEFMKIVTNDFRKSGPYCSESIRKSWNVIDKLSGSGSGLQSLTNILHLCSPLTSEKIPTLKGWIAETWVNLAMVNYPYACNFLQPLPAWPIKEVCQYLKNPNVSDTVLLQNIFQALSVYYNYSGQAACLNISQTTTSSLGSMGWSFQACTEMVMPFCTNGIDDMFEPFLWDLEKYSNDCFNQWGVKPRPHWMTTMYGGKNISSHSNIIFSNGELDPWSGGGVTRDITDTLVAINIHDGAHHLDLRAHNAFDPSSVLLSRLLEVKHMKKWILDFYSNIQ
- Measurement Protocol: Inhibition of mouse recombinant PrCP using Mca-Ala-Pro-Lys(Dnp)-OH as substrate after 30 mins by fluorescence analysis
pIC50: −log10 of the molar value.
Recorded Metric: pIC50

Solved entries (count: 3):
Molecule	Numeric Result
COc1ccc(C2CN(c3cc(N4CCC[C@H]4c4nc5cc(Cl)c(Cl)cc5[nH]4)ncn3)CCO2)cc1 (stereo not given in full)	7.34
Clc1cc2nc([C@@H]3CCCN3c3cc(N4CCN(Cc5ccccc5)CC4)ncn3)[nH]c2cc1Cl	6.38
Clc1cc2nc([C@@H]3CCCN3c3cc(N4CCCC(N5CCc6c(cccc6-c6cccnc6)C5)C4)ncn3)[nH]c2cc1Cl (stereo in doubt; 28b)	7.74

(I) C[C@@H](c1ccc(Cl)cc1)N(C)c1cc(N2CCCC(C(C)(C)O)C2)ncn1 (stereo in doubt; 36a)
(II) Clc1cc2nc([C@@H]3CCCN3c3cc(N4CCCC(N5CCc6c(cccc6-c6cccnc6)C5)C4)ncn3)[nH]c2cc1Cl (stereo in doubt; 28a)
(III) COC(=O)N[C@H]1CC[C@H](Nc2cc(N[C@@H](C)c3ccc(Cl)cc3)ncn2)CC1
(IV) C[C@@H](c1ccc(Cl)cc1)N(C)c1cc(N2CCCC(C(C)(C)O)C2)ncn1 (mixture of isomers)
(V) C[C@H](Nc1cc(N[C@H]2CC[C@H](c3ccccc3)CC2)ncn1)c1ccc(Cl)cc1
Challenge: Order the 5 molecules from highest to lowest pIC50. Form field (ranking): labels in requested order.
Response given: II, III, V, I, IV
(II: 8.00, III: 7.59, V: 7.12, I: 6.84, IV: 6.10)

(A) Clc1cc2nc([C@@H]3CCCN3c3cc(N4CCC(Cn5cccn5)CC4)ncn3)[nH]c2cc1Cl
(B) C[C@H](Nc1cc(N[C@H]2CC[C@H](NS(C)(=O)=O)CC2)ncn1)c1ccc(Cl)cc1
Challenge: // max by pIC50 over [ A , B ] Bench note: the answer is the label of the chosen record.
Response given: B
(B: 6.98, A: 6.69)

###

- Tested Target: Lysosomal Pro-X carboxypeptidase (Mus musculus)
- Measurement Protocol: Inhibition of mouse recombinant PrCP assessed as angiotensin 3 cleavage after 8 mins by LC/MS analysis
pIC50: −log10 of the molar value.
Recorded Metric: pIC50

Compound	pIC50
Clc1cc2nc([C@@H]3CCCN3c3cc(N4CCCC(N5CCc6c(cccc6-c6cccnc6)C5)C4)ncn3)[nH]c2cc1Cl (stereo in doubt; 28a)	6.46

(a) COC(=O)N[C@H]1CC[C@H](Nc2cc(N[C@@H](C)c3ccc(Cl)cc3)ncn2)CC1
(b) Clc1cc2nc([C@@H]3CCCN3c3cc(N4CCCC(N5CCc6c(cccc6-c6cccnc6)C5)C4)ncn3)[nH]c2cc1Cl (stereo in doubt; 28b)
(c) C[C@@H](c1ccc(Cl)cc1)N(C)c1cc(N2CCCC(C(C)(C)O)C2)ncn1 (stereo in doubt; 36a)
(d) C[C@@H](c1ccc(-c2ccccc2)cc1)[C@H](NC(=O)C(C)(C)N)C(=O)N1CCC[C@H]1c1nc2cc(Cl)c(Cl)cc2[nH]1
Challenge: Order the 4 compounds from highest to lowest pIC50. Form field (ranking): labels in requested order.
Response given: d, a, b, c

Source of measurements: ChEMBL document CHEMBL1949605
